These entries and their values trace back to patent US20230263822A1.

# Assay setup: rat, in vivo, sc, 50 mg/kg
Experimental readout: BUN (mg/dL)
One number for each entry, in mg/dL.

ISIS 416851: MOE gapmer, nucleobases 1275 to 1318 of SEQ ID NO: 1 (Table 8) (antisense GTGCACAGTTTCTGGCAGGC; MOE gapmer, wing and gap sizes not given here) = 24

As a next step, examine the substance that follows.
Requested field: BUN. Item: ISIS 416859: MOE gapmer, nucleobases 1275 to 1318 of SEQ ID NO: 1 (Table 8) (antisense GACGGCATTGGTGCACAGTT; MOE gapmer, wing and gap sizes not given here)
24

----------
# Tested on: human Factor 11 mRNA
# Measurement notes: Dose-dependent antisense inhibition of human Factor 11 in HepG2 cells, lipofectin 9.375-150 nM (Example 2)
# Type: cell-based
# Assay setup: 37.5 nM, ~16 h
Strand notation (5' to 3'): a small letter for the sugar, then the base; units joined by * are phosphorothioate-linked, units joined directly phosphodiester-linked; [ ] holds rarer units or linkages, { } end groups; capitals alone tell only the bases. e = 2'-O-(2-methoxyethyl) (MOE); [5mC] = 5-methylcytosine; d = 2'-deoxy (DNA)
Experimental readout: percent inhibition of Factor 11 at 37.5 nM (%)
One number for each entry, in %.

Below, 10 substances whose answers are already recorded.
413476 (antisense eT*eT*eG*eA*eG*dA*dT*dT*d[5mC]*dT*dT*dT*dG*dG*dG*e[5mC]*e[5mC]*eA*eT*eT) [compound 413476] = 64
412212 (antisense e[5mC]*e[5mC]*eG*eG*eG*dA*dT*dG*dA*dT*dG*dA*dG*dT*dG*e[5mC]*eA*eG*eA*eT) [compound 412212] = 59
413467 (antisense eG*eG*eT*e[5mC]*e[5mC]*dA*d[5mC]*dA*dT*dA*dA*dA*dT*dG*dT*e[5mC]*eT*eT*eT*eG) [compound 413467] = 49
413482 (antisense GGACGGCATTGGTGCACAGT; 5-10-5 MOE gapmer, further chemistry not given here) [compound 413482] = 59
412224 (antisense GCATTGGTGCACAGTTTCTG; 5-10-5 MOE gapmer, further chemistry not given here) [compound 412224] = 57
412225 (antisense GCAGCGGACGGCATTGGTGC; 5-10-5 MOE gapmer, further chemistry not given here) [compound 412225] = 65
412206 (antisense e[5mC]*e[5mC]*eG*eT*eG*d[5mC]*dA*dT*d[5mC]*dT*dT*dT*d[5mC]*dT*dT*eG*eG*e[5mC]*eA*eT) [compound 412206] = 68
412223 (antisense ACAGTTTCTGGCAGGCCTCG; 5-10-5 MOE gapmer, further chemistry not given here) [compound 412223] = 62
413468 (antisense eG*eT*e[5mC]*eT*eA*dG*dG*dT*d[5mC]*d[5mC]*dA*d[5mC]*dA*dT*dA*eA*eA*eT*eG*eT) [compound 413468] = 56
413469 (antisense eT*eG*e[5mC]*e[5mC]*e[5mC]*dT*dT*d[5mC]*dA*dT*dG*dT*d[5mC]*dT*dA*eG*eG*eT*e[5mC]*e[5mC]) [compound 413469] = 53

Okay, here is my list. What is percent inhibition of Factor 11 at 37.5 nM for each of these?
1. 412203 (antisense eA*eA*eT*eG*eT*d[5mC]*dT*dT*dT*dG*dT*dT*dG*d[5mC]*dA*eA*eG*e[5mC]*eG*e[5mC]) [compound 412203]
2. 413481 (antisense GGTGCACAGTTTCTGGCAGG; 5-10-5 MOE gapmer, further chemistry not given here) [compound 413481]

[61, 56]
